- target: SHV-128 (Enterobacter cloacae)
- Sequence (D5LIR5 entry or part of it): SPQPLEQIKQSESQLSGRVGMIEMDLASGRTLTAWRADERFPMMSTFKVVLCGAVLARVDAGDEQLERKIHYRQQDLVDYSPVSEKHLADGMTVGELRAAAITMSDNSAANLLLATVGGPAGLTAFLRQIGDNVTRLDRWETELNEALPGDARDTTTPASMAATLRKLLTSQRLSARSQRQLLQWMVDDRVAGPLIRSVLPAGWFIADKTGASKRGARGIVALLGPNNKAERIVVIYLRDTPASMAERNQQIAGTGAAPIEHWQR
readout_kind: IC50 (µM)
Give bare numbers, in µM.

Find the measured IC50 of O=C(O)[C@H]1/C(=C/CO)O[C@@H]2CC(=O)N21 and report it.
4.2
